Each entry below carries its recorded viability decrease.
# PROTOCOL_DETAILS: growth inhibition of GSK3B-pretreated HCT116 cells – cell-based, CellTiter-Glo, 0.2 to 20 µM (AID 1117336)
# TEST_PARAMETERS: HCT116 viability after GSK3B inhibitor, at 20 µM, stronger effect = higher value
Write it as a number; the unit % goes unstated.

INSERT INTO assay_data (compound, value) VALUES
  ('Cc1cc(=O)c2c(O)c3c(O)cc(=O)c4c3c3c(cc(O)c1c23)C(C)(C)C=4O', 117);

Which viability decrease value belongs to `NC(=O)c1cccnc1` ?
7

Do the same for Cc1c(C)c2c(c(C)c1O)CCC(C)(COc1ccc(CC3SC(=O)NC3=O)cc1)O2 (configuration not stated) please
88.4

Record: `Oc1ccc(O)cc1`
45.2

Could you do the same for `CC(=O)Oc1cc(C(C)C)c(OCCN(C)C)cc1C` , please?
19.7

Then this compound: `O=c1[nH]c(=O)n([C@H]2C[C@H](O)[C@@H](CO)O2)cc1Br`
17.6

----------
# PROTOCOL_DETAILS: differential killing of epithelial or mesenchymal cells, primary screen, imaging, PC-3E GFP, TEM4-18 mCherry, co-culture (AID 1345086);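 note: normalised mesenchymal count divided by normalised epithelial count so high means epithelial killing; cells exposed to compound for 72 h before imaging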
# TEST_PARAMETERS: imaging cell counts, at 1 µM, actives lie on both sides, counts scaled to control wells, 1 = unselective
METRIC_NAME: red/green cell ratio (normalised)
API doc: respond with a numeric literal and nothing else, no unit.

Value lookup for red/green cell ratio (normalised); key = `CCCCCCCCCCCCCCCC[N+](C)(C)CCN(Cc1ccc(OC)cc1)c1ncccn1`
0.95

And `COc1cc(O)c2c(c1)C(=O)c1cc(C)cc(O)c1C2=O` ?
1

Repeat for the following molecule: `COC(=O)C1=C(C)NC(C)=C(C(=O)OC)C1c1ccccc1[N+](=O)[O-]`
0.87

And `COc1cc(O)c(C)c(O)c1` ?
0.94

Also, `O=c1c(O)c(-c2ccccc2)oc2ccccc12` please.
0.97

Subsequent entry: `CS(=O)(=O)c1ccc(C2=C(c3ccccc3)C(=O)OC2)cc1`
0.98

Try this molecule next: `NC(N)=NCCCCN=C(N)N`
0.92

What do we get for Clc1ccc(C(Cn2ccnc2)OCc2ccsc2Cl)c(Cl)c1 (configuration not stated) ?
1.15

Now the same for CCCCN1CCCCC1C(=O)Nc1c(C)cccc1C (configuration not stated)
1.17

Thanks! And CC1(C)CC2C1CCC1(C)OC1CCC2(C)O (configuration not stated) ?
1.05

Can you handle `O=C(O)c1nc2cc(Cl)c(Cl)cc2[nH]c1=O` next?
0.95

Repeat for the following molecule: `Cc1cc(O)c2c(c1)C(=O)c1cc(O)cc(O)c1C2=O`
1.05

----------
aggregation suppression score reference
# PROTOCOL_DETAILS: suppressors of polyglutamine aggregation in yeast, 75Q-TubH (AID 1616)
# TEST_PARAMETERS: S. cerevisiae 75Q-TubH polyglutamine aggregation suppression; stronger effect = higher value
Could you respond with only the numeric value?

Worked set:
INSERT INTO measurements (compound, metric_name, value) VALUES
  ('CCn1cc(C(=O)O)c(=O)c2ccc(C)nc21', 'aggregation suppression score', 0.277),
  ('CC(C)(C)NCC(O)c1ccc(O)c(CO)c1 (stereo unspecified)', 'aggregation suppression score', 0.989),
  ('Clc1cc(Cl)c(OCC#CI)cc1Cl', 'aggregation suppression score', -0.184);

Now let's try a different one.
What aggregation suppression score value was documented for this compound, CCOC(=O)C(Cc1ccc(O)cc1)NC(C)=O (stereo unspecified) ?
0.981

----------
# PROTOCOL_DETAILS: viability rescue of complex I mutant cybrids, primary screen, cell-based, galactose medium, ATP luminescence (AID 1645843);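 note: positive z means more ATP and so rescue of galactose-driven cybrid death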
# TEST_PARAMETERS: complex I mutant cybrid cells, 72 h, stronger effect = higher value
just bin them by z-score: c1 = under -0.07, c2 = from -0.07 up to 0.5, c3 = 0.5 and over

As a guide, the following entries are already answered.
INSERT INTO results (compound, label_class) VALUES
  ('CC(C)c1c(C(=O)Nc2ccccc2)c(-c2ccccc2)c(-c2ccc(F)cc2)n1CC[C@@H](O)C[C@@H](O)CC(=O)O', 'c1'),
  ('OCCN1CCN(CCCN2c3ccccc3C=Cc3ccccc32)CC1', 'c1'),
  ('CCOC(=O)/C=C(C)/C=C/C=C(C)/C=C/c1c(C)cc(OC)c(C)c1C', 'c1');

Continue with the next compound.
Assign a category based on measured z-score for `CCC1=C[C@@H]2CN(C1)Cc1c([nH]c3ccccc13)[C@@](C(=O)OC)(c1cc3c(cc1OC)N(C)[C@H]1[C@@](O)(C(=O)OC)[C@H](OC(C)=O)[C@]4(CC)C=CCN5CC[C@]31[C@@H]54)C2` and give only the class name.
c1

----------
# PROTOCOL_DETAILS: glucagon-like peptide 1 release enhancers, primary assay, NCI-H716 cell line, NPC library (AID 1117341)
# TEST_PARAMETERS: NCI-H716 cells, at 10 µM, stronger effect = higher value
METRIC_NAME: GLP1 secretion stimulation (%)
// return numeric value only (unit: %, not printed)

Recorded results for 3 molecules are shown here.
INSERT INTO results (molecule, metric_name, value) VALUES
  ('CC[N+](C)(CC)CCOC(=O)C1c2ccccc2Oc2ccccc21', 'GLP1 secretion stimulation', -4.5),
  ('Nc1nc(Cl)nc2c1ncn2[C@@H]1O[C@H](CO)[C@@H](O)[C@@H]1F', 'GLP1 secretion stimulation', 0.3),
  ('CC(C)(C(=O)O)c1ccc(C(O)CCCN2CCC(C(O)(c3ccccc3)c3ccccc3)CC2)cc1 (stereo not drawn)', 'GLP1 secretion stimulation', -2.2);

GET /values?readout=GLP1 secretion stimulation&item= `C/C(=N\O)[C@@H](C)NCC(C)(C)CN[C@H](C)/C(C)=N/O`
-8.7

----------
# PROTOCOL_DETAILS: rescue of polyQ-huntingtin neuronal dysfunction in worms, whole organism, C. elegans mechanosensory neurons, N-terminal huntingtin (AID 1599)
# TEST_PARAMETERS: touch response, stronger effect = higher value
Results with a measured potency or affinity are listed apart.
Decide using rescue above control: a value greater than or equal to -5 is TRUE, a smaller one is FALSE.

Field: example entries. Status: answers known.
INSERT INTO assay_data (compound, label_class) VALUES
  ('CC1=C(/C=C/C(C)=C/C=C/C(C)=C/C=C/C=C(C)/C=C/C=C(C)/C=C/C2=C(C)CCCC2(C)C)C(C)(C)CCC1', 'FALSE'),
  ('NCCCS(=O)(=O)O', 'FALSE'),
  ('CC1=C(/C=C/C(C)=C/C=C/C(C)=C/CO)C(C)(C)CCC1', 'TRUE');

Hi team, for `N[C@@H](Cc1c[nH]c2ccccc12)C(=O)O` , is the recorded rescue above control at or above -5?
FALSE

Next up: CSCCC(NC=O)C(=O)NC(CC(C)C)C(=O)NC(Cc1ccccc1)C(=O)O (stereo unspecified)
TRUE

Another compound: `O=C(O)c1cc([N+](=O)[O-])ccc1NCCCc1ccccc1`
TRUE

----------
Reported inhibition values follow for various compounds
# SYSTEM_TESTED: L-lactate dehydrogenase (Plasmodium falciparum (isolate CDC / Honduras))
# PROTOCOL_DETAILS: PfLDH activity inhibition – cell lysate, 3D7 strain, counter-screen for P. falciparum growth inhibition project (AID 2304);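 note: 0% = vehicle and 100% = reference inhibitor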
# TEST_PARAMETERS: P. falciparum 3D7 crude extract, LDH APAD/NBT absorbance; at 2 µM; stronger effect = higher value
Numbers only; they are read as %.

INSERT INTO measurements (compound, unit_abbreviation, value) VALUES
  ('CC(=O)Nc1cccc(C(=O)Nc2cccc(-c3cccc(-c4nc5ccccc5[nH]4)c3)c2)c1', '%', -5);

Fill in the blank: the reported inhibition of COc1ccc(C(C(=O)NC2CCN(C[C@H](O)c3ccnc4ccc(OC)cc34)CC2)N2CCN(Cc3ccccc3)CC2)cc1 (some centres undefined) is ____.
-9

Next compound: `CCCCCCN1CCCN(Cc2ccc(C(=O)Nc3ccc(CC)cc3)cc2)CC1`
2

Another compound to check: `C=C[C@H]1CN(CCCCCCC)CC[C@H]1CCN(C)c1ccnc2ccc(OC)cc12`
-1

Now give it for `O=C(/C=C/c1ccc(Cl)c(Cl)c1)NCCCCCN1CCC(NC(=O)Nc2ccccc2Cl)CC1` too.
3

Also `O=C(/C=C/c1ccc(Cl)c(Cl)c1)NC1CCN(CCCNC(=O)c2cccc(Cl)c2)CC1` ?
-2

Same lookup for `Cc1nc(-c2ccc(-c3ccc(NC(=O)c4coc5ccc(N6C[C@@H](C)N[C@@H](C)C6)cc45)cc3)c(C)c2)no1` , please.
1

Input `c1ccc(Oc2ccc(Nc3ccnc4cc(-c5ccc(CN6CCOCC6)o5)ccc34)cc2)nc1`
0

One more compound: `Cn1ncc2c3c(CCN4CCC(NCc5cc6c(cn5)OCCO6)CC4)c(Cl)cnc3ccc21`
0
